- METHOD DESCRIPTION: small-molecule microarray binders of probe aWnt5a, primary screen, biochemical, biotinylated probe, 635/667 nm fluorescence (AID 1113);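 note: score merges 667 nm fluorescence intensity with signal-to-noise per printed feature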
- PARTICULARS: higher = more signal
Kind request: treat -0.006 as inclusive, so composite z-score at -0.006 or higher is rule met, anything lower is rule not met.

INSERT INTO measurements (molecule, qualitative_label) VALUES
  ('[N-]=[N+]=Nc1ccccc1C[C@@]1(C(=O)N2CCOCC2)N=C(c2ccc(OCCCO)cc2)O[C@@H]1c1ccccc1N=[N+]=[N-]', 'rule not met'),
  ('COc1ccc(CCNC(=O)[C@@]2(c3ccc([N+](=O)[O-])cc3)CC(=O)N(C(C)C)[C@@H]2c2ccc(CO)cc2)cc1', 'rule not met'),
  ('C=C(CCCC)C(=O)CC[C@@H](OC(C)=O)c1ccccc1OCCO', 'rule not met'),
  ('C=CC[C@@]1(C(=O)NCC(O)CO)N=C(c2ccc(OCCCO)cc2)O[C@@H]1c1ccccc1CN=[N+]=[N-] (some centres undefined)', 'rule not met'),
  ('COCCOC(=O)N1C(=O)[C@@]2(c3cc(C#CCCO)ccc31)[C@H](c1ccc(OCCO)cc1)N1[C@H](c3ccccc3)[C@H](c3ccccc3)OC(=O)[C@H]1[C@@H]2C(=O)NC[C@H](O)c1ccccc1', 'rule met'),
  ('CC(C)(C)OC(=O)CC[C@@]1(C(=O)NCc2ccccc2)N=C(c2ccc(OCCCO)cc2)O[C@@H]1c1ccccc1', 'rule met'),
  ('CCCCO[C@H]1C[C@H]2C(Br)=C[C@@]1(CO)C(=O)[C@]21CO1', 'rule not met'),
  ('COCCOC(=O)N1C(=O)[C@@]2(c3cc(C#CCC(C(=O)OC)C(=O)OC)ccc31)[C@H](C(=O)N1CCN(c3ncccn3)CC1)[C@H]1C(=O)O[C@H](c3ccccc3)[C@H](c3ccccc3)N1[C@@H]2c1ccc(O)cc1', 'rule met');
